tested on: MCF7; assay: Cytocidal activity against human MCF7 cells assessed as growth inhibition after 48 hrs by SRB assay; type: functional; settings: MCF7, 48 h
// map GI50 onto a label; ranges low interval = under 7 µM, middle interval = from 7 µM up to 30 µM, high interval = 30 µM and over

compound	categoryLabel
CCOC(=O)c1c[nH]c2c(ccn3cc(-c4cccc(OC)c4)nc23)c1=O	high interval
COc1ccc(-c2c[nH]c3c(ccn4ccnc34)c2=O)cc1	high interval
CCOC(=O)c1c[nH]c2c(ccn3cc(C(C)C)nc23)c1=O	high interval

Form: Item = "Cc1ccc(-c2ccc3ccn4ccnc4c3n2)cc1" ; Class = ? middle interval

Form: Item = "COc1ccc(-c2c[nH]c3ccn4ccnc4c3c2=O)cc1" ; Class = ? low interval

Form: Item = "CCOC(=O)c1c[nH]c2c(ccn3cc(-c4ccccc4)nc23)c1=O" ; Class = ? high interval

Form: Item = "CCOC(=O)c1c[nH]c2ccn3cc(-c4ccccc4)nc3c2c1=O" ; Class = ? middle interval

Form: Item = "COc1cc(-c2c[nH]c3ccn4ccnc4c3c2=O)cc(OC)c1OC" ; Class = ? high interval

Form: Item = "O=c1c(-c2ccccc2)c[nH]c2c1ccn1ccnc21" ; Class = ? high interval

Form: Item = "COc1cc(-c2c[nH]c3c(ccn4ccnc34)c2=O)cc(OC)c1OC" ; Class = ? high interval

Form: Item = "CCOC(=O)c1c[nH]c2c(ccn3ccnc23)c1=O" ; Class = ? high interval

Form: Item = "CCOC(=O)c1c[nH]c2ccn3cc(C)nc3c2c1=O" ; Class = ? high interval
